molecular target: MEF2D/HDAC4 protein-protein interactions (Homo sapiens (Human)); experiment: Mammalian two-hybrid assay, inhibition of MEF2D and HDAC4 protein interactions (luciferase reporter in HeLa cells); conditions: HeLa cells co-transfected with GAL4-MEF2D, HDAC4-VP16 and Gal4Luc; overnight treatment; luciferase normalized to Renilla
Assay readout: IC50 (nM)

Completed entries (count: 7):
O=C(/C=C/c1cccc(CNc2cccc(N3CCCC3)c2)c1)NO [ST37] :: 590
CSc1cccc(NCc2cccc(/C=C/C(=O)NO)c2)c1 [ST20] :: 320
CCc1cccc(NCc2cccc(/C=C/C(=O)NO)c2)c1 [ST22] :: 540
O=C(/C=C/c1cccc(CNc2cccc(OC3CC3)c2)c1)NO [ST16] :: 380
O=C(/C=C/c1cccc(CNc2cccc(OC3COC3)c2)c1)NO [ST31] :: 560
CCOc1cccc(NCc2cccc(/C=C/C(=O)Nc3ccccc3N)c2)c1 [ST4] :: 1070
CCOC(=O)N[C@H](CCCCC(=O)NO)C(=O)Nc1cccc(Br)c1 [ST112] :: 610

(P) CCOC(=O)NC(CCCCC(=O)Nc1ccccc1N)C(=O)Nc1cccc(OC2CC2)c1 (stereo not shown) [ST83]
(Q) N#Cc1cccc(NCc2cccc(/C=C/C(=O)NO)c2)c1 [ST23]
query: Higher IC50 between P and Q ? Response format: the label of the selected entry.
result: P
(P: 840 nM, Q: 420 nM)

----------
tested on: neonatal rat ventricular myocytes (NRVMs); assay: Inhibition of fetal calf serum induced cardiomyocyte hypertrophy in vitro; assay type: cell-based; details: Rattus norvegicus, Ventricular myocyte; serum-starved NRVMs, 5% FCS, myocyte size 48 hours after treatment; concentration reducing FCS-induced hypertrophy by 50%
Counter-ions that a name gives are not always drawn.
Assay readout: pIC50
Friendly reminder that pIC50 comes from taking -log10 of the concentration in mol/L.

Answered examples (6):
Nc1ccccc1NC(=O)/C=C/c1cccc(CNc2nc(C(F)(F)F)co2)c1 :: 5.38
CCOC(=O)NC(CCCCC(=O)Nc1ccccc1N)C(=O)Nc1cccc(OC2CC2)c1 (stereo not shown) :: 5.41
Nc1ccccc1NC(=O)/C=C/c1cccc(CNc2ccc3ncccc3c2)c1 :: 5.03
COC(=O)NC(CCCCC(=O)Nc1ccccc1N)C(=O)Nc1cccc2cccnc12 (stereo not shown) :: 7.10
CCOc1cccc(NCc2cccc(/C=C/C(=O)Nc3ccccc3N)c2)c1 :: 5.36
Nc1ccccc1NC(=O)/C=C/c1cccc(CNc2ccccc2)c1 :: 6.09

Kindly consider the entry below.
query: Please give the measured pIC50 for this compound: COC(=O)NC(CCCCC(=O)Nc1ccccc1N)C(=O)Nc1cccc(OCC(F)(F)F)c1 (stereo not shown) [ST102, hydrochloride]
result: 6.15

----------
Molecular target: MEF2D/HDAC4 protein-protein interactions (Homo sapiens (Human), UniProt Q14814)
Sequence (Q14814 whole entry, species assumed, the tested form may be a part): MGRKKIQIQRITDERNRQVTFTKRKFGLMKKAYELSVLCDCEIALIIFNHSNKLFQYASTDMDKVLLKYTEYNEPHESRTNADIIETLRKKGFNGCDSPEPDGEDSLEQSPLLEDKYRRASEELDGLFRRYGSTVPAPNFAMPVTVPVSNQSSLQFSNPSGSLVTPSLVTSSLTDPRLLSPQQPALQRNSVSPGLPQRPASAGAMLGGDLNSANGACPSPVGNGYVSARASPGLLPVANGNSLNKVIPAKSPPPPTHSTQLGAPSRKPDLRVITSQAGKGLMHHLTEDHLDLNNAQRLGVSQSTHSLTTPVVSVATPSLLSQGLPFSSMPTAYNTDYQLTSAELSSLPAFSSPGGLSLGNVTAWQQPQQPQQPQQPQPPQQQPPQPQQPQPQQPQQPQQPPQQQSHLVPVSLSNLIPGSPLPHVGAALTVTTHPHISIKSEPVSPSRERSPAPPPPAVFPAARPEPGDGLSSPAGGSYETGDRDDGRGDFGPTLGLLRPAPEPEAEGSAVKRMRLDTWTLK
Assay: Mammalian two-hybrid assay, inhibition of MEF2D and HDAC4 protein interactions (luciferase reporter in HeLa cells)
Details: HeLa cells co-transfected with GAL4-MEF2D, HDAC4-VP16 and Gal4Luc; overnight treatment; luciferase normalized to Renilla
Text: Detection of MEF2D and HDAC4 interactions. In this mammalian two-hybrid assay, HDAC4 and MEF2D proteins were used. […] MEF2D and HDAC4 protein interactions were detected as a result of the GAL4-MEF2D and HDAC4-VP16 protein complex binding a DNA promoter on the reporter plasmid (Gal4Luc) and driving cellular expression of a luciferase gene. The measured luciferase protein signal was proportional to the amount of MEF2D and HDAC4 protein interactions occurring with the cell. […]
pIC50: −log10 of the molar value.
Assay readout: pIC50

Here's what some known entries look like.
Nc1ccccc1NC(=O)/C=C/c1cccc(CNc2nnc(C(F)(F)F)s2)c1 [ST61] :: 5.10
CCOC(=O)NC(CCCCC(=O)Nc1ccccc1N)C(=O)Nc1cccnc1 (stereo not drawn) [ST123] :: 5.70
O=C(/C=C/c1cccc(CNc2cccc(F)c2)c1)NO [ST18] :: 5.99

(A) O=C(/C=C/c1cccc(CNc2nc(C(F)(F)F)co2)c1)NO [ST79]
(B) Nc1ccccc1NC(=O)/C=C/c1cccc(C(C(=O)Nc2ccccc2)C(=O)Nc2ccccc2)c1 [ST58]
query: // which entry has the larger pIC50 value, A or B ? Select an item and report its label.
result: A
(A: 6.55, B: 5.52)

(a) CCOc1cccc(NCc2cccc(/C=C/C(=O)NO)c2)c1 [ST21]
(b) O=C(/C=C/c1cccc(CNc2cccnc2)c1)NO [ST72]
query: Pick the one with the larger pIC50: a vs b Write the label of whichever entry you select.
result: a
(a: 6.46, b: 5.81)

(A) Nc1ccccc1NC(=O)/C=C/c1cccc(CNCc2cccc(OC3CC3)c2)c1 [ST13]
(B) CCN(CC)c1cccc(NCc2cccc(/C=C/C(=O)Nc3ccccc3N)c2)c1 [ST9]
(C) COc1cccc(NCc2cc(F)cc(/C=C/C(=O)NO)c2)c1 [ST44]
(D) O=C(/C=C/c1cccc(CNc2nc(-c3ccncc3)cs2)c1)NO [ST70]
(E) CCOC(=O)NC(CCCCC(=O)Nc1ccccc1N)C(=O)Nc1cccc(SC(F)(F)F)c1 (stereo not drawn) [ST84]
query: Descending sort on pIC50 required. Put the labels in the order asked and list them.
result: D, C, E, A, B
(D: 6.85, C: 6.42, E: 6.03, A: 5.82, B: 5.45)

(P) Nc1ccccc1NC(=O)/C=C/c1cccc(CNc2nc(C(F)(F)F)co2)c1 [ST63]
(Q) CCOC(=O)N[C@@H](CCCCC(=O)NO)C(=O)Nc1cccc(Br)c1 [ST107]
query: # argmax over pIC50 for candidates P and Q Label of pick, please.
result: Q

----------
molecular target: MEF2D/p300 protein-protein interactions (Homo sapiens (Human), UniProt Q14814); assay: Mammalian two-hybrid assay, inhibition of MEF2D and P300 protein interactions (luciferase reporter in HeLa cells); conditions: HeLa cells co-transfected with GAL4-MEF2D, P300-VP16 and Gal4Luc
Structures can show the parent of a compound that is named as a salt.
Assay readout: IC50 (µM)

CCOC(=O)NC(CCCCC(=O)NCc1cncc(OCC)c1)C(=O)NCc1cncc(OCC)c1 (centres unmarked) :: 20
Nc1ccccc1NC(=O)/C=C/c1cccc(CNCc2cccc(OC3CCC3)c2)c1 :: 0.94
COC(=O)NC(CCCCC(=O)Nc1ccccc1N)C(=O)Nc1cccc(OCC(F)(F)F)c1 (centres unmarked) [ST102, hydrochloride] :: 1.2

(1) Cc1csc(NCc2cccc(/C=C/C(=O)Nc3ccccc3N)c2)n1
(2) Nc1ccccc1NC(=O)/C=C/c1cccc(CNc2ccccc2)c1
query: For 1 and 2 , which recorded IC50 is lower? // respond with label for picked entry
result: 2
(2: 0.38 µM, 1: 1.69 µM)

----------
test system: neonatal rat ventricular myocytes (NRVMs); assay: Inhibition of fetal calf serum induced cardiomyocyte hypertrophy in vitro; type: cell-based; conditions: Rattus norvegicus, Ventricular myocyte; serum-starved NRVMs, 5% FCS, myocyte size 48 hours after treatment; concentration reducing FCS-induced hypertrophy by 50%
Assay readout: IC50 (µM)
Enter your answer as a number in µM; do not include the unit.

Some compounds with recorded IC50:
CCOC(=O)N[C@@H](CCCCC(=O)Nc1ccccc1N)C(=O)Nc1cccc(Br)c1 :: 2.89
Nc1ccccc1NC(=O)/C=C/c1cccc(CNc2cccc(OC3CC3)c2)c1 :: 0.46
Nc1ccccc1NC(=O)/C=C/c1cccc(CNCc2cccc(OC3CCC3)c2)c1 :: 0.15
Cc1[nH]c2ccccc2c1CCNCc1cccc(/C=C/C(=O)Nc2ccccc2N)c1 :: 1.23
Cc1csc(NCc2cccc(/C=C/C(=O)Nc3ccccc3N)c2)n1 :: 1420
Nc1ccccc1NC(=O)CCCCC(NC(=O)c1cccnc1)C(=O)Nc1cccc(Br)c1 (stereo not drawn) :: 5500

query: I would be grateful if you could share the reported IC50 for COC(=O)NC(CCCCC(=O)Nc1ccccc1N)C(=O)Nc1nc(-c2ccncc2)cs1 (stereo not drawn) .
result: 4400

query: # lookup: IC50 of `Nc1ccccc1NC(=O)/C=C/c1cccc(CNCc2cccc(OC3CC3)c2)c1`
result: 0.12

query: Fill in: IC50 of `Nc1ccccc1NC(=O)/C=C/c1cccc(CNc2ccc3ccccc3c2)c1` is ___
result: 1.16

----------
biological target: MEF2D/HDAC4 protein-protein interactions (Homo sapiens (Human)); assay: Mammalian two-hybrid assay, inhibition of MEF2D and HDAC4 protein interactions (luciferase reporter in HeLa cells); settings: HeLa cells co-transfected with GAL4-MEF2D, HDAC4-VP16 and Gal4Luc; overnight treatment; luciferase normalized to Renilla
Assay readout: IC50 (µM)

CCCC(=O)NC(CCCCC(=O)Nc1ccccc1N)C(=O)Nc1cccc(Br)c1 (centres unmarked) :: 0.46

(I) O=C(/C=C/c1cccc(CNc2ccccc2)c1)NO
(II) Nc1ccccc1NC(=O)/C=C/c1cccc(CNc2cccc3cccnc23)c1
(III) CCOC(=O)NC(CCCCC(=O)Nc1ccccc1N)C(=O)Nc1cccc(SC)c1 (centres unmarked)
query: Order the items by recorded IC50; the first position goes to the largest value. Kindly provide the labels arranged according to the requested ordering.
result: II, I, III
